test system: Perennial rye grass; experiment: Turf grass selectivity, greenhouse pot test; format: in vivo; conditions: 25 g ai/ha, 4 weeks

Compound: CCOC(=O)c1cnn(C)c1S(=O)(=O)NC(=O)Nc1nc(OC)cc(OC)n1 [Control chemical No. 1, Pyrazosulfuron ethyl, reference compound]
phytotoxicity (visual assessment 0-10): 0
//
Compound: COc1cc(OC)nc(NC(=O)NS(=O)(=O)c2ncccc2C(F)(F)F)n1 [Control chemical No. 2, Flazasulfuron, reference compound]
phytotoxicity (visual assessment 0-10): 10
//
Compound: COc1nc(C)nc(NC(=O)NS(=O)(=O)c2cscc2C2(CF)OCCO2)n1
phytotoxicity (visual assessment 0-10): 10
//
Compound: Cc1cc(C)nc(NC(=O)NS(=O)(=O)c2ccccc2C(O)C(C)F)n1 (stereo not shown)
phytotoxicity (visual assessment 0-10): 0

====

system: Bentgrass; assay: Turf grass selectivity, greenhouse pot test; format: in vivo, Agrostris palustris; settings: 12 g ai/ha, 4 weeks
Listed compounds paired with reported phytotoxicity (visual assessment 0-10)

Compound: COc1nc(C)nc(NC(=O)NS(=O)(=O)c2cscc2C2(CF)OCCO2)n1
phytotoxicity (visual assessment 0-10): 5
//
Compound: CCOC(=O)c1cnn(C)c1S(=O)(=O)NC(=O)Nc1nc(OC)cc(OC)n1 [Control chemical No. 1, Pyrazosulfuron ethyl, reference compound]
phytotoxicity (visual assessment 0-10): 0
//
Compound: Cc1cc(C)nc(NC(=O)NS(=O)(=O)c2ccccc2C(O)C(C)F)n1 (stereo not shown)
phytotoxicity (visual assessment 0-10): 0
//
Compound: COc1cc(OC)nc(NC(=O)NS(=O)(=O)c2ncccc2C(F)(F)F)n1 [Control chemical No. 2, Flazasulfuron, reference compound]
phytotoxicity (visual assessment 0-10): 10

====

system: Kentucky bluegrass; experiment: Turf grass selectivity, greenhouse pot test; format: in vivo, Poa pratensis; conditions: 100 g ai/ha, 4 weeks

Compound: COc1cc(OC)nc(NC(=O)NS(=O)(=O)c2ncccc2C(F)(F)F)n1 [Control chemical No. 2, Flazasulfuron, reference compound]
phytotoxicity (visual assessment 0-10): 10
--
Compound: Cc1cc(C)nc(NC(=O)NS(=O)(=O)c2ccccc2C(O)C(C)F)n1 (stereo not shown)
phytotoxicity (visual assessment 0-10): 0
--
Compound: COc1nc(C)nc(NC(=O)NS(=O)(=O)c2cscc2C2(CF)OCCO2)n1
phytotoxicity (visual assessment 0-10): 10
--
Compound: CCOC(=O)c1cnn(C)c1S(=O)(=O)NC(=O)Nc1nc(OC)cc(OC)n1 [Control chemical No. 1, Pyrazosulfuron ethyl, reference compound]
phytotoxicity (visual assessment 0-10): 0

====

system: Bentgrass; assay: Turf grass selectivity, greenhouse pot test; type: in vivo, Agrostris palustris; conditions: 6 g ai/ha, 2 weeks
Listed compounds paired with reported phytotoxicity (visual assessment 0-10)

Compound: CCOC(=O)c1cnn(C)c1S(=O)(=O)NC(=O)Nc1nc(OC)cc(OC)n1 [Control chemical No. 1, Pyrazosulfuron ethyl, reference compound]
phytotoxicity (visual assessment 0-10): 0
--
Compound: COc1nc(C)nc(NC(=O)NS(=O)(=O)c2cscc2C2(CF)OCCO2)n1
phytotoxicity (visual assessment 0-10): 5
--
Compound: COc1cc(OC)nc(NC(=O)NS(=O)(=O)c2ncccc2C(F)(F)F)n1 [Control chemical No. 2, Flazasulfuron, reference compound]
phytotoxicity (visual assessment 0-10): 10
--
Compound: Cc1cc(C)nc(NC(=O)NS(=O)(=O)c2ccccc2C(O)C(C)F)n1 (stereo not shown)
phytotoxicity (visual assessment 0-10): 0

====

Listed compounds paired with reported phytotoxicity (visual assessment 0-10)
tested on: Kentucky bluegrass; assay: Turf grass selectivity, greenhouse pot test; type: in vivo, Poa pratensis; conditions: 25 g ai/ha, 4 weeks
Endpoint: phytotoxicity (visual assessment 0-10)

Compound: Cc1cc(C)nc(NC(=O)NS(=O)(=O)c2ccccc2C(O)C(C)F)n1 (stereo not shown) [Example 1]
Target: Kentucky bluegrass
Value Observed: 0
//
Compound: CCOC(=O)c1cnn(C)c1S(=O)(=O)NC(=O)Nc1nc(OC)cc(OC)n1 [Control chemical No. 1, Pyrazosulfuron ethyl, reference compound]
Target: Kentucky bluegrass
Value Observed: 0
//
Compound: COc1nc(C)nc(NC(=O)NS(=O)(=O)c2cscc2C2(CF)OCCO2)n1 [Example 2]
Target: Kentucky bluegrass
Value Observed: 10
//
Compound: COc1cc(OC)nc(NC(=O)NS(=O)(=O)c2ncccc2C(F)(F)F)n1 [Control chemical No. 2, Flazasulfuron, reference compound]
Target: Kentucky bluegrass
Value Observed: 10

====

Listed compounds paired with reported efficacy (0-100 scale)
tested on: Dandelion; assay: Weed spectrum, greenhouse pot test; format: in vivo; settings: Post-emergence, 100 g ai/ha, two weeks after application

Compound: Cc1cc(C)nc(NC(=O)NS(=O)(=O)c2ccccc2C(O)C(C)F)n1 (stereo not shown) [Example 1]
efficacy (0-100 scale): 100
--
Compound: COc1nc(C)nc(NC(=O)NS(=O)(=O)c2cscc2C2(CF)OCCO2)n1 [Example 2]
efficacy (0-100 scale): 100
--
Compound: COc1cc(OC)nc(NC(=O)NS(=O)(=O)c2ncccc2C(F)(F)F)n1 [Control chemical No. 2, Flazasulfuron, reference compound]
efficacy (0-100 scale): 50
--
Compound: CCOC(=O)c1cnn(C)c1S(=O)(=O)NC(=O)Nc1nc(OC)cc(OC)n1 [Control chemical No. 1, Pyrazosulfuron ethyl, reference compound]
efficacy (0-100 scale): 100

====

tested on: Perennial rye grass; experiment: Turf grass selectivity, greenhouse pot test; type: in vivo; conditions: 3 g ai/ha, 4 weeks
Listed compounds paired with reported phytotoxicity (visual assessment 0-10)

Compound: Cc1cc(C)nc(NC(=O)NS(=O)(=O)c2ccccc2C(O)C(C)F)n1 (stereo not shown)
phytotoxicity (visual assessment 0-10): 0
//
Compound: COc1nc(C)nc(NC(=O)NS(=O)(=O)c2cscc2C2(CF)OCCO2)n1
phytotoxicity (visual assessment 0-10): 1
//
Compound: COc1cc(OC)nc(NC(=O)NS(=O)(=O)c2ncccc2C(F)(F)F)n1 [Control chemical No. 2, Flazasulfuron, reference compound]
phytotoxicity (visual assessment 0-10): 10
//
Compound: CCOC(=O)c1cnn(C)c1S(=O)(=O)NC(=O)Nc1nc(OC)cc(OC)n1 [Control chemical No. 1, Pyrazosulfuron ethyl, reference compound]
phytotoxicity (visual assessment 0-10): 0

====

system: Perennial rye grass; experiment: Turf grass selectivity, greenhouse pot test; assay type: in vivo; details: 12 g ai/ha, 4 weeks

Molecule: Cc1cc(C)nc(NC(=O)NS(=O)(=O)c2ccccc2C(O)C(C)F)n1 (stereo not shown)
phytotoxicity (visual assessment 0-10): 0
//
Molecule: COc1nc(C)nc(NC(=O)NS(=O)(=O)c2cscc2C2(CF)OCCO2)n1
phytotoxicity (visual assessment 0-10): 5
//
Molecule: COc1cc(OC)nc(NC(=O)NS(=O)(=O)c2ncccc2C(F)(F)F)n1 [Control chemical No. 2, Flazasulfuron, reference compound]
phytotoxicity (visual assessment 0-10): 10
//
Molecule: CCOC(=O)c1cnn(C)c1S(=O)(=O)NC(=O)Nc1nc(OC)cc(OC)n1 [Control chemical No. 1, Pyrazosulfuron ethyl, reference compound]
phytotoxicity (visual assessment 0-10): 0

====

Listed molecules paired with reported phytotoxicity (visual assessment 0-10)
tested on: Zoysia japonica; experiment: Turf grass selectivity, greenhouse pot test; format: in vivo; conditions: Zoysia japonica, 400 g ai/ha, 4 weeks
Endpoint: phytotoxicity (visual assessment 0-10)

Molecule: COc1cc(OC)nc(NC(=O)NS(=O)(=O)c2ncccc2C(F)(F)F)n1 [Control chemical No. 2, Flazasulfuron, reference compound]
Value Observed: 6
--
Molecule: CCOC(=O)c1cnn(C)c1S(=O)(=O)NC(=O)Nc1nc(OC)cc(OC)n1 [Control chemical No. 1, Pyrazosulfuron ethyl, reference compound]
Value Observed: 0
--
Molecule: Cc1cc(C)nc(NC(=O)NS(=O)(=O)c2ccccc2C(O)C(C)F)n1 (stereo not shown)
Value Observed: 0
--
Molecule: COc1nc(C)nc(NC(=O)NS(=O)(=O)c2cscc2C2(CF)OCCO2)n1
Value Observed: 3

====

tested on: Perennial rye grass; test: Turf grass selectivity, greenhouse pot test; type: in vivo; conditions: 400 g ai/ha, 4 weeks
Endpoint: phytotoxicity (visual assessment 0-10)

Compound: CCOC(=O)c1cnn(C)c1S(=O)(=O)NC(=O)Nc1nc(OC)cc(OC)n1 [Control chemical No. 1, Pyrazosulfuron ethyl, reference compound]
Value Observed: 0
//
Compound: COc1cc(OC)nc(NC(=O)NS(=O)(=O)c2ncccc2C(F)(F)F)n1 [Control chemical No. 2, Flazasulfuron, reference compound]
Value Observed: 10
//
Compound: Cc1cc(C)nc(NC(=O)NS(=O)(=O)c2ccccc2C(O)C(C)F)n1 (stereo not shown)
Value Observed: 0
//
Compound: COc1nc(C)nc(NC(=O)NS(=O)(=O)c2cscc2C2(CF)OCCO2)n1
Value Observed: 10

====

Listed molecules paired with reported efficacy (0-100 scale)
test system: Portulaca oleracea; assay: Weed spectrum, greenhouse pot test; assay type: in vivo; details: Post-emergence, 100 g ai/ha, two weeks after application
Endpoint: efficacy (0-100 scale)

Molecule: COc1cc(OC)nc(NC(=O)NS(=O)(=O)c2ncccc2C(F)(F)F)n1 [Control chemical No. 2, Flazasulfuron, reference compound]
Value Observed: 100
--
Molecule: CCOC(=O)c1cnn(C)c1S(=O)(=O)NC(=O)Nc1nc(OC)cc(OC)n1 [Control chemical No. 1, Pyrazosulfuron ethyl, reference compound]
Value Observed: 80
--
Molecule: Cc1cc(C)nc(NC(=O)NS(=O)(=O)c2ccccc2C(O)C(C)F)n1 (stereo not shown)
Value Observed: 100
--
Molecule: COc1nc(C)nc(NC(=O)NS(=O)(=O)c2cscc2C2(CF)OCCO2)n1
Value Observed: 100
